This collection of values is drawn from patent US10081635B2.

- Study Target: Human JAK3 (Homo sapiens (Human))
- Sequence (P52333 whole entry): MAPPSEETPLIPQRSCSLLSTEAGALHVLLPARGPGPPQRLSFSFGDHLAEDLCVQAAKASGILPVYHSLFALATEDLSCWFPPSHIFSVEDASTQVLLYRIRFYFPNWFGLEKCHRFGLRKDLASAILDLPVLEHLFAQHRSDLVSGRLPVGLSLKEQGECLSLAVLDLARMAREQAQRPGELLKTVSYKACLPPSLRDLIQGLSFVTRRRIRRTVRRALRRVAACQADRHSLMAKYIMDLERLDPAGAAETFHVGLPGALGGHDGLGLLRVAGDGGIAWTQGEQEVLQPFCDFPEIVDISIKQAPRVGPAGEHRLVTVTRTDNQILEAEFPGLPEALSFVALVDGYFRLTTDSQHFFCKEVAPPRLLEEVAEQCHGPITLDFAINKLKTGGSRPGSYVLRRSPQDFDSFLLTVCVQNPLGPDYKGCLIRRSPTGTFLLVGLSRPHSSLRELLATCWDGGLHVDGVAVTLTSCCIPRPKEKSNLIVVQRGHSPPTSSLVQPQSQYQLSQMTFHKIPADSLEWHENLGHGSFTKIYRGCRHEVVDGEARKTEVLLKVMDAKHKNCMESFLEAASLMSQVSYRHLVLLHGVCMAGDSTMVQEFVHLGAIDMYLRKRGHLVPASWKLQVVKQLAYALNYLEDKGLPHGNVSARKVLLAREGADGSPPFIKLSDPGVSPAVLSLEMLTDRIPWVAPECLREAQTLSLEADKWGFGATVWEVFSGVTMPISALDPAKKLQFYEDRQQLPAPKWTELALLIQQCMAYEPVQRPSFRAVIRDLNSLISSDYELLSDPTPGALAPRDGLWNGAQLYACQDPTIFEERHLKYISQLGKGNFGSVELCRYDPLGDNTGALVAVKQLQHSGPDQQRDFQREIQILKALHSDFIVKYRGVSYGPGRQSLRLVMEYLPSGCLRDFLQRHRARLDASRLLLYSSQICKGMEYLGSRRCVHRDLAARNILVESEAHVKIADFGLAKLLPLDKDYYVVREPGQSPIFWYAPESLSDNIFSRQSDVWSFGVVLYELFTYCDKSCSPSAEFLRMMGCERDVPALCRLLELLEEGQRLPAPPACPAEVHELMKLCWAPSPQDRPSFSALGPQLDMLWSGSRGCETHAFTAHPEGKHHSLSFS
- Assay Summary: In vitro kinase inhibition test, JAK3 (33P-ATP filter scintillation)
- Assay type: biochemical
- Particulars: compound at 1 uM; read-out: JAK3 kinase-phosphorylation inhibitory level (% inhibition)
Each entry gets False if its inhibition at 1 µM stays under 20%, and True if its inhibition at 1 µM is 20% or above.

[ask] inhibition at 1 µM >= 20% for CN(c1ncnc2[nH]ccc12)[C@H]1CN(C(=O)c2cccnc2)CC12CC2 [Example 12] ?
[reply] False

[ask] inhibition at 1 µM >= 20% for CC(=O)NCC(=O)N1CC(N(C)c2ncnc3[nH]ccc23)C2(CC2)C1 (stereo not shown) [Example 56] ?
[reply] False

[ask] inhibition at 1 µM >= 20% for CC(C)COC(=O)N1C[C@@H](N(C)c2ncnc3[nH]ccc23)C2(CC2)C1 [Example 70] ?
[reply] False

[ask] inhibition at 1 µM >= 20% for CC(C)COC(=O)N1C[C@H](N(C)c2ncnc3[nH]ccc23)C2(CC2)C1 [Example 20] ?
[reply] True

[ask] inhibition at 1 µM >= 20% for CN(c1ncnc2[nH]ccc12)[C@H]1CN(C(=O)C2CC2)CC12CC2 [Example 9] ?
[reply] False

[ask] inhibition at 1 µM >= 20% for CN(c1ncnc2[nH]ccc12)[C@H]1CN(S(=O)(=O)c2ccccc2)CC12CC2 [Example 36] ?
[reply] True

[ask] inhibition at 1 µM >= 20% for CNC(=O)CC(=O)N1C[C@H](N(C)c2ncnc3[nH]ccc23)C2(CC2)C1 [Example 8] ?
[reply] False

[ask] inhibition at 1 µM >= 20% for CN(c1ncnc2[nH]ccc12)[C@H]1CN(S(=O)(=O)N2CCCCC2)CC12CC2 [Example 50] ?
[reply] True

[ask] inhibition at 1 µM >= 20% for CN(c1ncnc2[nH]ccc12)[C@H]1CN(C(=O)c2ccco2)CC12CC2 [Example 11] ?
[reply] False

[ask] inhibition at 1 µM >= 20% for CN(c1ncnc2[nH]ccc12)[C@H]1CN(S(=O)(=O)c2cccc(C#N)c2)CC12CC2 [Example 41] ?
[reply] True

[ask] inhibition at 1 µM >= 20% for CN(c1ncnc2[nH]ccc12)C1CN(C(=O)CC#N)CC12CC2 (racemic) [Example 55] ?
[reply] True

[ask] inhibition at 1 µM >= 20% for CCS(=O)(=O)N1C[C@H](N(C)c2ncnc3[nH]ccc23)C2(CC2)C1 [Example 33] ?
[reply] True

[ask] inhibition at 1 µM >= 20% for CN(c1ncnc2[nH]ccc12)[C@H]1CN(S(=O)(=O)c2cccc([N+](=O)[O-])c2)CC12CC2 [Example 44] ?
[reply] True

[ask] inhibition at 1 µM >= 20% for CN(c1ncnc2[nH]ccc12)[C@H]1CN(S(=O)(=O)c2ccc3ccccc3c2)CC12CC2 [Example 49] ?
[reply] True

[ask] inhibition at 1 µM >= 20% for CCCCCN1C[C@H](N(C)c2ncnc3[nH]ccc23)C2(CC2)C1 [Example 2] ?
[reply] False

[ask] inhibition at 1 µM >= 20% for CN(c1ncnc2[nH]ccc12)[C@H]1CN(C(=O)c2ccccc2)CC12CC2 [Example 13] ?
[reply] False

[ask] inhibition at 1 µM >= 20% for CNC(=O)CC(=O)N1C[C@@H](N(C)c2ncnc3[nH]ccc23)C2(CC2)C1 [Example 67] ?
[reply] False

[ask] inhibition at 1 µM >= 20% for CN(c1ncnc2[nH]ccc12)[C@@H]1CN(C(=O)CC#N)CC12CC2 [Example 66] ?
[reply] False

[ask] inhibition at 1 µM >= 20% for CN(c1ncnc2[nH]ccc12)[C@@H]1CN(S(=O)(=O)c2ccccc2)CC12CC2 [Example 72] ?
[reply] False

[ask] inhibition at 1 µM >= 20% for CN(c1ncnc2[nH]ccc12)[C@H]1CN(C(=O)Nc2cccc(Cl)c2Cl)CC12CC2 [Example 28] ?
[reply] True

[ask] inhibition at 1 µM >= 20% for CN(c1ncnc2[nH]ccc12)[C@H]1CN(C(=O)Nc2cc(Cl)ccc2Cl)CC12CC2 [Example 27] ?
[reply] False

[ask] inhibition at 1 µM >= 20% for CN(c1ncnc2[nH]ccc12)[C@@H]1CN(C(=S)CC#N)CC12CC2 [Example 69] ?
[reply] False

[ask] inhibition at 1 µM >= 20% for CN(c1ncnc2[nH]ccc12)[C@H]1CN(S(=O)(=O)C(F)(F)F)CC12CC2 [Example 32] ?
[reply] True

[ask] inhibition at 1 µM >= 20% for CN(c1ncnc2[nH]ccc12)[C@H]1CN(C(=O)c2cccc(C#N)c2)CC12CC2 [Example 15] ?
[reply] False

[ask] inhibition at 1 µM >= 20% for CCCS(=O)(=O)N1C[C@H](N(C)c2ncnc3[nH]ccc23)C2(CC2)C1 [Example 35] ?
[reply] True
